// provenance: patent US20110287023A1

Molecular target: recombinant HMG1 produced in E. coli as a calmodulin binding protein (CBP) fusion (human)
Sequence (P09429 whole entry, the tested form may be a part): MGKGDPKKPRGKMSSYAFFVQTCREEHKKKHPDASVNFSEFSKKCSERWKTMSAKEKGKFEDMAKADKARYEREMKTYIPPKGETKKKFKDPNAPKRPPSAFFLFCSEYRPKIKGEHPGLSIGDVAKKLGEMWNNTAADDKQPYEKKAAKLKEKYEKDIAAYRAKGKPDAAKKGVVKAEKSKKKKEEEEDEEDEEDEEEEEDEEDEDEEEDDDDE
Test: cell-based or functional assay
IC50 IL-12 strictly under 1000 ng/mL means condition met; at 1000 ng/mL or over means condition not met.

Here are 3 binders together with their reported answers.
human anti-HMG1 antibody G4 (antibody, IgG1, V domains shown, full length IgG1 made from a human Fab phage clone; also called ATCC PTA-6258) VH: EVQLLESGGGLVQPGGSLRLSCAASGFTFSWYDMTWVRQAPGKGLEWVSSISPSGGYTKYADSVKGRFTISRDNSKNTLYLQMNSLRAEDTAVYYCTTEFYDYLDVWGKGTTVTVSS VL: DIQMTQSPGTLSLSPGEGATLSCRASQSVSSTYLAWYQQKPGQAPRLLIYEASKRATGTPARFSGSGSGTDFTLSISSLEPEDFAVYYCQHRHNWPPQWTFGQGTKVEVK    condition met
human anti-HMG1 antibody S10 (antibody, IgG1, V domains shown, full length IgG1 made from a human Fab phage clone) VH: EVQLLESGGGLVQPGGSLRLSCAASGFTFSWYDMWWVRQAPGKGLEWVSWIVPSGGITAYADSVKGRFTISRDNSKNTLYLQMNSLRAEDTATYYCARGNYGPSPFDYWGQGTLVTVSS VL: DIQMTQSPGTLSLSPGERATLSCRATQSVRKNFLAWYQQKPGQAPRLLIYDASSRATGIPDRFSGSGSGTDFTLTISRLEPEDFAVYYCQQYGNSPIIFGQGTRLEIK    condition not met
human anti-HMG1 antibody G12 (antibody, IgG1, V domains shown, full length IgG1 made from a human Fab phage clone) VH: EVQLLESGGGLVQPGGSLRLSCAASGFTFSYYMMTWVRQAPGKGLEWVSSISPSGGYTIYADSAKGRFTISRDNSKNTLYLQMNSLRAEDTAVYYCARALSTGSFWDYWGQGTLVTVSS VL: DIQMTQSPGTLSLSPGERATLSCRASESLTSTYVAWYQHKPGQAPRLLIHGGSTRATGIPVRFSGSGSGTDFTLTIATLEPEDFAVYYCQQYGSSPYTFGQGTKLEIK    condition not met

In: Hello, is IC50 IL-12 of the following binder strictly smaller than 1000 ng/mL? human anti-HMG1 antibody G2 (antibody, IgG1, V domains shown, full length IgG1 made from a human Fab phage clone) VH: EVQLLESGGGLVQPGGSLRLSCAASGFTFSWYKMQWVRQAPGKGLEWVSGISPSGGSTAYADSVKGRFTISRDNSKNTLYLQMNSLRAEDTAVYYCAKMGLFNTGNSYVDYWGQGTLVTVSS VL: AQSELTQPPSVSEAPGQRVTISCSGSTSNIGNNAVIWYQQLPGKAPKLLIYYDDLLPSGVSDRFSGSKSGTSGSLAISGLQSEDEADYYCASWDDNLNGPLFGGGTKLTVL
Out: condition not met

In: Bench note: check whether human anti-HMG1 antibody S16 (antibody, IgG1, V domains shown, full length IgG1 made from a human Fab phage clone; also called ATCC PTA-6259) VH: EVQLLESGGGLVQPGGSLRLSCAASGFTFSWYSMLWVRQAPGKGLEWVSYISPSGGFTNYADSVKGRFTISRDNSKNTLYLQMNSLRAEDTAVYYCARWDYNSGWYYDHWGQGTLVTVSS VL: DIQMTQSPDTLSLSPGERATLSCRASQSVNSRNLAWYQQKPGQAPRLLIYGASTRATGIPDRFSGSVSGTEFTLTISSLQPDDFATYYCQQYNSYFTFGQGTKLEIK shows IC50 IL-12 below 1000 ng/mL
Out: condition not met
